System: Staphylococcus aureus
Assay: Minimum inhibitory concentration (MIC) against Staphylococcus aureus 241
Type: functional
Conditions: Staphylococcus aureus; read-out: MIC
testReadout: MIC (µg/mL)
Numeric only. Scale: µg/mL

Using the record for CO/N=C1\CN(c2c(F)cc3c(=O)c(C(=O)O)cn(C4CC4)c3c2OC)CC1CN (centres undefined) , report its MIC.
1

Using the record for CCCO/N=C1\CN(c2nc3c(cc2F)c(=O)c(C(=O)O)cn3C2CC2)CC1CN (centres undefined) , report its MIC.
2

Using the record for NCC1CN(c2nc3c(cc2F)c(=O)c(C(=O)O)cn3C2CC2)C/C1=N\OCc1ccccc1 (centres undefined) , report its MIC.
2

Using the record for CC(C)O/N=C1\CN(c2nc3c(cc2F)c(=O)c(C(=O)O)cn3C2CC2)CC1CN (centres undefined) , report its MIC.
2

Using the record for CO/N=C1\CN(c2nc3c(cc2F)c(=O)c(C(=O)O)cn3C2CC2)CC1CN(C)C (centres undefined) , report its MIC.
32

New cases:
Using the record for CC(C)(C)O/N=C1\CN(c2nc3c(cc2F)c(=O)c(C(=O)O)cn3C2CC2)CC1CN (centres undefined) , report its MIC.
1

Using the record for CO/N=C1\CN(c2nc3c(cc2F)c(=O)c(C(=O)O)cn3-c2ccc(F)cc2F)CC1CN (centres undefined) , report its MIC.
8

Using the record for NCC1CCN(c2nc3c(cc2F)c(=O)c(C(=O)O)cn3C2CC2)C1 (centres undefined) , report its MIC.
16

* * *

Tested on: Enterobacter cloacae
Test: Minimum inhibitory concentration (MIC) against Enterobacter cloacae P99
Type: functional
testReadout: MIC

Using the record for CO/N=C1\CN(c2nc3c(cc2F)c(=O)c(C(=O)O)cn3C2CC2)CC1CN (stereo in doubt) , report its MIC.
< 8 ng/mL

Using the record for CC(C)O/N=C1\CN(c2nc3c(cc2F)c(=O)c(C(=O)O)cn3C2CC2)CC1CN (configuration not stated) , report its MIC.
< 8 ng/mL

Using the record for CO/N=C1\CN(c2c(F)c(N)c3c(=O)c(C(=O)O)cn(C4CC4)c3c2F)CC1CN (configuration not stated) , report its MIC.
< 8 ng/mL

Using the record for CC(C)(C)O/N=C1\CN(c2nc3c(cc2F)c(=O)c(C(=O)O)cn3C2CC2)CC1CN (configuration not stated) , report its MIC.
≤ 8 ng/mL

Using the record for CCO/N=C1\CN(c2nc3c(cc2F)c(=O)c(C(=O)O)cn3C2CC2)CC1CN (configuration not stated) , report its MIC.
< 8 ng/mL

Using the record for CCCO/N=C1\CN(c2nc3c(cc2F)c(=O)c(C(=O)O)cn3C2CC2)CC1CN (configuration not stated) , report its MIC.
< 8 ng/mL

Using the record for NCC1CN(c2nc3c(cc2F)c(=O)c(C(=O)O)cn3C2CC2)C/C1=N\OCc1ccccc1 (configuration not stated) , report its MIC.
< 8 ng/mL

Reference source for all entries: ChEMBL document CHEMBL1130203
